# test.system: type II NADH:ubiquinone oxidoreductase (PfNDH2) (Plasmodium falciparum, UniProt Q8I302)
# Construct: gene PF3D7_0915000; His-tagged PfNDH2 (pET45, E. coli)
# Sequence (Q8I302 31-533): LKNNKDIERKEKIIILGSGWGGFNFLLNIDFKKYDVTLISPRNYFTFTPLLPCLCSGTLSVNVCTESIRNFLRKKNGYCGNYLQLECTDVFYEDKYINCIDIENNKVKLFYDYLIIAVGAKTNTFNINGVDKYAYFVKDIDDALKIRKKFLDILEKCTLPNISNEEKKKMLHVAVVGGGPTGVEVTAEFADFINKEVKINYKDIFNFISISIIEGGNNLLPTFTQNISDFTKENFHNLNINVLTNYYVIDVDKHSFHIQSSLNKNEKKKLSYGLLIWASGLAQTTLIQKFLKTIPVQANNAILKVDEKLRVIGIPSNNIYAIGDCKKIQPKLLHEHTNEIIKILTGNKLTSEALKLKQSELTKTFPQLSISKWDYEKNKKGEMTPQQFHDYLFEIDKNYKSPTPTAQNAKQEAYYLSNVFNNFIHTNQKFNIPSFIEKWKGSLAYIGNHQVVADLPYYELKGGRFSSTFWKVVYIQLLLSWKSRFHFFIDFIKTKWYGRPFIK
# test: steady-state kinetics, competitive inhibition vs NADH
# Assay type: biochemical
quantity: pKi
Give bare numbers, as −log10 of the molar value.

Problem: // pKi lookup, key: Nc1ncnc2c1ncn2[C@@H]1O[C@H](COP(=O)(O)OP(=O)(O)OC[C@H]2OC(O)[C@H](O)[C@@H]2O)[C@@H](O)[C@H]1O (stereo partly shown)
Solution: 2.60

---

# test.system: type II NADH:ubiquinone oxidoreductase (PfNDH2) (Plasmodium falciparum)
# Construct: gene PF3D7_0915000; His-tagged PfNDH2 (pET45, E. coli)
# test: steady-state kinetics, competitive product inhibition vs NADH with naphthazarin as acceptor
# Assay type: biochemical
quantity: pKi
One number for each entry, as −log10 of the molar value.

Problem: // pKi lookup, key: NC(=O)c1ccc[n+]([C@@H]2O[C@H](COP(=O)([O-])OP(=O)(O)OC[C@H]3O[C@@H](n4cnc5c(N)ncnc54)[C@H](O)[C@@H]3O)[C@@H](O)[C@H]2O)c1
Solution: 2.43
